test: Cytotoxicity against African green monkey Vero cells after 24 hrs by MTT assay; assay type: cell-based; conditions: chlorocebus sabaeus
Kindly state CC50 at 24 h for each of the entries shown.

Below, 5 molecules whose answers are already recorded.
CC1CS(=O)(=O)CCN1/N=C/c1ccc([N+](=O)[O-])o1 (stereo unspecified) [NIFURTIMOX] :: 163 µM
COc1ccc(CN(Cc2ccc(OC)cc2)c2ccc3nc(N)nc(N)c3c2)cc1 :: > 200 µM
Nc1nc(N)c2cc(N(Cc3ccc(OC(F)(F)F)cc3)Cc3ccc(OC(F)(F)F)cc3)ccc2n1 :: > 200 µM
COc1ccc(CNc2ccc3nc(N)nc(N)c3c2)cc1 :: 147 µM
COc1ccc(CNc2ccc3nc(NC(C)=O)nc(NC(C)=O)c3c2)cc1 :: 156 µM

Fill in CC50 at 24 h for each of the 5 molecules listed.
1. CCc1nc(N)nc(N)c1-c1ccc(Cl)cc1 [PYRIMETHAMINE]
2. CN(C)CCCOc1ccc(CNc2ccc3nc(N)nc(N)c3c2)cc1
3. Nc1nc(N)c2cc(NCc3ccc(OC(F)(F)F)cc3)ccc2n1
4. COc1ccc(CN(Cc2ccc(OC(F)(F)F)cc2)c2ccc3nc(N)nc(N)c3c2)cc1
5. CCN(Cc1ccc(OC(F)(F)F)cc1)c1ccc2nc(N)nc(N)c2c1

["122 µM", "> 200 µM", "182 µM", "> 200 µM", "> 200 µM"]

Recorded CC50 at 24 h (molecule Nc1nc(N)c2cc(NCc3ccc4c(c3)OCCO4)ccc2n1 ): > 200 µM

---

experiment: Antioxidant activity assessed as inhibition of ABTS free radical scavenging activity after 10 mins by spectrophotometry relative to control; type: physicochemical
Property label: IC50 (µM)
Answers are plain numbers, in µM.

The substance listed as VITAMIN E has a reported IC50 of 14.8

---

test system: Plasmodium berghei; experiment: Antiplasmodial activity against Plasmodium berghei infected in CD1 mouse assessed as reduction in parasitemia at 50 mg/kg, po administered for 4 days measured on day 4 relative to vehicle-treated control; assay type: functional; parameters: scale not given: the % may be the effect or the level left
Property label: Activity (%)
Answers are plain numbers, in %.

Previously resolved entries follow.
COc1ccc(CNc2ccc3nc(NC(C)=O)nc(NC(C)=O)c3c2)cc1 :: 89.3
CCN(CC)CCCC(C)Nc1ccnc2cc(Cl)ccc12 (stereo not given) :: 100
COc1ccc(CN(Cc2ccc(OC(F)(F)F)cc2)c2ccc3nc(N)nc(N)c3c2)cc1 :: 95.2
Nc1nc(N)c2cc(N(Cc3ccc(OC(F)(F)F)cc3)Cc3ccc(OC(F)(F)F)cc3)ccc2n1 :: 21

Shifting focus to the molecule that follows.
Lab note: CN(C)CCCOc1ccc(CNc2ccc3nc(N)nc(N)c3c2)cc1 gave Activity of 53.2

---

system: Trypanosoma cruzi; assay: Antimicrobial activity against bloodstream trypomastigote stage of Trypanosoma cruzi INC-5 after 24 hrs by Brener method; type: functional; details: INC-5, 24 h
Property label: LC50 (µM)
Numbers only, in µM.

COc1ccc(CN(Cc2ccc(OC(F)(F)F)cc2)c2ccc3nc(N)nc(N)c3c2)cc1 :: 40.7
COc1ccc(CNc2ccc3nc(NC(C)=O)nc(NC(C)=O)c3c2)cc1 :: 509
COc1ccc(CNc2ccc3nc(N)nc(N)c3c2)cc1 :: 155

I'm hoping you can list LC50 for every molecule here, please.
1. CN(C)CCCOc1ccc(CNc2ccc3nc(N)nc(N)c3c2)cc1
2. Nc1nc(N)c2cc(NCc3ccc4c(c3)OCCO4)ccc2n1
3. COc1ccc(CN(Cc2ccc(OC)cc2)c2ccc3nc(N)nc(N)c3c2)cc1

1. 184
2. 72.5
3. 46.5

Batch of 4 molecules: report LC50 for each.
1. Nc1nc(N)c2cc(N(Cc3ccc(OC(F)(F)F)cc3)Cc3ccc(OC(F)(F)F)cc3)ccc2n1
2. CCN(Cc1ccc(OC(F)(F)F)cc1)c1ccc2nc(N)nc(N)c2c1
3. Nc1nc(N)c2cc(NCc3ccc(OC(F)(F)F)cc3)ccc2n1
4. O=C(Cn1ccnc1[N+](=O)[O-])NCc1ccccc1 [BENZNIDAZOLE]

[29.2, 43.8, 46.1, 690]
